These measurements were taken from PubChem BioAssay (NCI).

# System: HCC-2998 colon
# Assay Method Text: NCI-60 one-dose screen, 48 h (100 = growth as untreated, 0 = no growth, -100 = all killed)
# Assay Setup: 10 µM
The panel holds about 83,000 compounds, 20% with a hit somewhere; the sample as a whole holds those more often.
Collected growth values appear next to each entry.
Give just the numeric value; % need not be written.

Known results for compounds:
COC[C@@H](CC(C)C)N=C1NC(=O)/C(=C/c2ccc3ncsc3c2)N1; 15.5
Cc1cc(C)nc(NS(=O)(=O)c2ccc(N/C(N)=N/c3nccc(-c4cccs4)n3)cc2)n1; 127
COc1ccc2c(c1)N=C(C(=O)O)/C2=C/c1sc(Nc2ccc(O)cc2)nc1O; 74.7
CC(=O)c1ccc(Nc2nc(SC(C)C)nc(-c3ccccc3)c2C#N)cc1; 70.2
O=C1NC(=NC2CCCCCC2)N/C1=C\c1ccc2ncoc2c1; 68.8
O=C1N/C(=N\c2nccs2)S/C1=C\c1cccs1; 40.8
Nc1cc(-c2cccc(C(=O)NCc3ccc4c(c3)OCO4)c2)ccn1; 103
Nc1cccnc1/C=N/NC(=S)NCCNC(=O)c1ccc(-n2nc(-c3ccccc3O)nc2-c2ccccc2O)cc1; -7.32
COc1ccc(/C=C/C(=O)c2ccc(NC(=O)CN3C(=O)NC(C)(c4ccccc4)C3=O)cc2)cc1 (stereo not given); 102
COc1ccc2nc(Cl)c(-c3cc(-c4ccccc4)nc(=O)[nH]3)cc2c1; 84.9

Give the measured growth for `COc1ccc(-c2nc(Nc3ccccc3S(N)(=O)=O)c3ccccc3n2)cc1` 12

Give the measured growth for `Nc1nc(-c2ccccc2)cc(-c2cc3ccccc3nc2Cl)n1` 103

Give the measured growth for `COc1ccc2ncc(C#Cc3cncc(C(=O)Nc4ccc(CN5CCN(C)CC5)c(C(F)(F)F)c4)c3)n2n1` -95.8
